Source: PubChem BioAssay (NCI)

# Tested on: COLO 205 colon
# ASSAY DETAILS: NCI-60 one-dose screen, 48 h (100 = growth as untreated, 0 = no growth, -100 = all killed)
# CONDITION NOTES: 10 µM unless noted
Compounds without any hit were thinned out: in the full panel of roughly 83,000, 20% have a hit.
Can you tell me growth for the items I'm about to list?
Answer in %, number only, no unit symbol.

# input Consider the compound `N#Cc1c(-c2ccccn2)[nH]c(=S)[nH]c1=O` . State its measured growth.
# output 110

# input Consider the compound `O=Cc1ccc(O)c2ncccc12` . State its measured growth.
# output 17.8

# input Consider the compound `N=C(N)c1ccc(-c2ccc(-c3cncc4ccccc34)s2)s1` . State its measured growth.
# output -78.1

# input Consider the compound `Cc1ccc(/C=C/c2c(C(=O)/C=C/c3ccc(Cl)cc3)c(C)nc3ccccc23)cc1` . State its measured growth.
# output 6.99

# input Consider the compound Cc1cc(O)c(C2=NN(c3ccc(S(N)(=O)=O)cc3)C(c3ccccc3Cl)C2)cc1Cl (stereo unspecified) . State its measured growth.
# output -92.1

# input Consider the compound `Cc1cc(=O)oc2c1ccc1oc(C#N)c(C)c12` . State its measured growth.
# output 121
